# Target entity: Ephrin type-B receptor 4 (Homo sapiens)
# Sequence (P54760 whole entry): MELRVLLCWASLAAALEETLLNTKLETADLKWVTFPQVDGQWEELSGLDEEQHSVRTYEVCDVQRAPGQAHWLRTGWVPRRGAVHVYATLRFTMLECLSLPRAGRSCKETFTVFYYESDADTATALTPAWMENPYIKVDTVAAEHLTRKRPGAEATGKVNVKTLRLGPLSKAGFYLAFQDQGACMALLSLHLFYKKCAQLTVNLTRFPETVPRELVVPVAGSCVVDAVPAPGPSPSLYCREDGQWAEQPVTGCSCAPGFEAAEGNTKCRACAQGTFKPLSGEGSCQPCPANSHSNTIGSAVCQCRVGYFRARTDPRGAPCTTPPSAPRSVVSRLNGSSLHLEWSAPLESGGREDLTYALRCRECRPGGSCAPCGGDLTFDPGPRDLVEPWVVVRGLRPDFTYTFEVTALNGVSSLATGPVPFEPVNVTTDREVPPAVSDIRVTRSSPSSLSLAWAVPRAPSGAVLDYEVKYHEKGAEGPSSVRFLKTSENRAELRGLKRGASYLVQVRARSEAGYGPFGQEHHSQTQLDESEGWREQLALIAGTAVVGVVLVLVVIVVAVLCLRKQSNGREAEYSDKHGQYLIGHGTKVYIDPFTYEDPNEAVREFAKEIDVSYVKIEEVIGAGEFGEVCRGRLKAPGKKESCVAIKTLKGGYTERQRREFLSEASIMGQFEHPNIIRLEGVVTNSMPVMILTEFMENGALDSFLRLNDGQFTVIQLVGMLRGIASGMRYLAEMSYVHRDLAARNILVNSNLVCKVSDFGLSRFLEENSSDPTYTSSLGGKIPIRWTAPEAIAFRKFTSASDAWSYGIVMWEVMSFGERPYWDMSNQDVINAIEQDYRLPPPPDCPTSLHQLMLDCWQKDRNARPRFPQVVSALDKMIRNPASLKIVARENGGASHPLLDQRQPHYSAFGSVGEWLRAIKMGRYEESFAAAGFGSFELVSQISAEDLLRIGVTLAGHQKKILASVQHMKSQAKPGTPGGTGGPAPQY
pIC50: −log10 of the molar value.
Measured property: pIC50

Solved cases below.
O=C(Nc1cccc(-c2cn3ccnc3c(NCc3ccncc3)n2)c1)Nc1cc(C(F)(F)F)ccc1O = 7.43
COc1cc(OC)c(NC(=O)Nc2cccc(-c3cn4ccnc4c(NCc4ccncc4)n3)c2)cc1Cl = 6.40
CSc1cccc(NC(=O)Nc2cccc(-c3cn4ccnc4c(NCc4ccncc4)n3)c2)c1 = 5.92
Cc1ccc(C)c(NC(=O)Nc2cccc(-c3cn4ccnc4c(NCc4ccncc4)n3)c2)c1 = 6.03
O=C(Nc1cccc(-c2cn3ccnc3c(NCc3ccncc3)n2)c1)Nc1ccc(Cl)c(Cl)c1 = 5.60

I = COc1cc(OC)c(C(F)(F)F)cc1NC(=O)Nc1cccc(-c2cn3ccnc3c(NCc3ccncc3)n2)c1
II = O=C(Nc1cccc(-c2cn3ccnc3c(NCC3CCNCC3)n2)c1)Nc1cccc(C(F)(F)F)c1
III = O=C(NCc1cccc(C(F)(F)F)c1)Nc1cccc(-c2cn3ccnc3c(NCc3ccncc3)n2)c1
IV = O=C(Nc1cccc(-c2cn3ccnc3c(NCc3ccncc3)n2)c1)Nc1cc(Cl)ccc1Cl
V = CCOc1cc(OCC)c(C(F)(F)F)cc1NC(=O)Nc1cccc(-c2cn3ccnc3c(NCc3ccncc3)n2)c1
Put these in order: smallest pIC50 first, largest last. Your task in answering is to list the labels in the requested order.
II, III, I, V, IV

a = O=C(Nc1cccc(-c2cn3ccnc3c(NCc3ccncc3)n2)c1)Nc1cc(Cl)c(Cl)cc1Cl
b = O=C(Cc1cccc(C(F)(F)F)c1)Nc1cccc(-c2cn3ccnc3c(NCc3ccncc3)n2)c1
c = COc1ccc(C)cc1NC(=O)Nc1cccc(-c2cn3ccnc3c(NCc3ccncc3)n2)c1
d = O=C(Nc1ccc(F)cc1)Nc1cccc(-c2cn3ccnc3c(NCc3ccncc3)n2)c1
Arrange these compounds by their pIC50, starting with the largest number. Your task in answering is to list the labels in the requested order.
c, a, b, d
(c: 7.11, a: 6.29, b: 5.62, d: 5.13)

1 = O=C(Nc1cccc(-c2cn3ccnc3c(NCc3ccncc3)n2)c1)c1cccc(C(F)(F)F)c1
2 = COc1cc(OC)c(NC(=O)Nc2cccc(-c3cn4ccnc4c(NCc4ccncc4)n3)c2)cc1Br
For 1 and 2 , which recorded pIC50 is lower? Respond with the label that goes with your answer.
1
(1: 6.13, 2: 6.69)

A = O=C(Nc1cccc(-c2cn3ccnc3c(NCc3ccncc3)n2)c1)Nc1c(Cl)cccc1Cl
B = N#Cc1cccc(NC(=O)Nc2cccc(-c3cn4ccnc4c(NCc4ccncc4)n3)c2)c1
C = O=C(Nc1ccc(Cl)cc1)Nc1cccc(-c2cn3ccnc3c(NCc3ccncc3)n2)c1
Arrange these compounds by their pIC50, starting with the largest number. Your task in answering is to list the labels in the requested order.
A, B, C
